The entries below come with measured inhibition values attached.
Assay: 384-well plate pilot, post-Golgi transport modulator project, inhibition of yeast transport mutant growth (AID 636); further: test concentration not given here
Details: absorbance 615 nm, about 18 h, stronger effect = higher value
Give your result in % as a bare value.

INSERT INTO results (compound, uom, numericreadout) VALUES
  ('CCOC(=O)N1CCC(NC(=O)C2CCCN2C(=O)OCc2ccccc2)CC1 (stereo unspecified)', '%', 2.89),
  ('CCOCCn1c(CN2CCN(c3cccc(Cl)c3)CC2)nc2c1c(=O)n(C)c(=O)n2C', '%', -3.07),
  ('COc1ccccc1-c1c(C)nn2c(N3CCC4(CC3)OCCO4)cc(C)nc12', '%', -1.05),
  ('CCCCNC(=O)c1cc(-c2ccc(F)cc2)on1', '%', -2.5),
  ('COC(=O)CSC1=C(C#N)C(c2ccccc2)CC(=O)N1 (stereo unspecified)', '%', -6);

# input Param item = CCOC(=O)CSc1nc2ccccc2n1CC(=O)N1CCN(c2ccccc2)CC1 ; retrieve measured inhibition.
# output -1.3

# input Lookup COc1cc(S(=O)(=O)NC2CCCCC2C)ccc1Cl (stereo unspecified)
# output -7.81

# input Lookup Cc1c(C(=O)NCc2ccccn2)sc2nc(-c3ccc(F)cc3)cn12
# output -3.12

# input Lookup Cc1nc2sccn2c(=O)c1CCN1CCC(=C(c2ccc(F)cc2)c2ccc(F)cc2)CC1
# output 1.04

# input Lookup CC(C)CCn1c(SCC#N)nc2c(sc3ccccc32)c1=O
# output -2.24

====

Assay: growth suppression of yeast trafficking mutant, preliminary HTS, modulators of trafficking downstream of Golgi apparatus project, 1536-format plate, OD 615 nm (AID 637); further: test concentration not given here
Conditions: yeast transport mutant growth, absorbance 615 nm, 18 h; stronger effect = higher value
endpointLabel: inhibition (%)
Give your result in % as a bare value.

The following compounds have reported results that may help.
INSERT INTO assay_data (compound, endpointlabel, numericreadout) VALUES
  ('CCCCc1ccc(NC(=O)COCC)cc1', 'inhibition', 5.08),
  ('Cc1cc(C)cc(N2C(=O)C3C4C=CC(C4)C3C2=O)c1 (configuration not stated)', 'inhibition', 2.36),
  ('CCOC(=O)c1c(C)n(C)c2ccc(O)c(S(=O)(=O)c3ccccc3)c12', 'inhibition', -1.31),
  ('CCOC(=O)CSC1=C(C#N)C(c2ccc(C)cc2)C(C(=O)OC)C(=O)N1 (configuration not stated)', 'inhibition', -5.56),
  ('Fc1cccc(-c2cc3nc4c(c(N5CCN(c6cnccn6)CC5)n3n2)CCCC4)c1', 'inhibition', 0.16);

# input Param item = O=C(Nc1ccc(NC(=O)c2ccco2)nc1)c1cccnc1 ; retrieve measured inhibition.
# output 0.65

# input Lookup CCCCCC(=O)N1CC2(C)CN(C(=O)CCCCC)CC(C)(C1)C2=O
# output 6.67

# input Lookup Nc1ncnc2c1ncn2[C@@H]1O[C@H](CO)[C@@H](O)[C@H]1O
# output 0.33

# input Lookup CCOC(=O)c1ccc(NC(=O)CSc2nnc(COc3ccccc3)n2C)cc1
# output -9.67

# input Lookup Cc1[nH]nc(-c2ccc(O)c(C)c2O)c1-c1cnn(-c2ccccc2)c1
# output -3.27

# input Lookup Cc1nc2nc(-c3cccnc3)nn2c(C)c1Cl
# output -3.27

# input Lookup O=C1C(CCS(=O)c2ccccc2)C(=O)N(c2ccccc2)N1c1ccccc1 (configuration not stated)
# output 10.7

# input Lookup Cn1c(=O)[nH]c(=O)c2c1nc(N1CCc3ccccc3C1)n2CCSc1nc2ccccc2s1
# output 2.9

# input Lookup Cc1cc(-c2ccccc2)nc2cc(C(N)=O)nn12
# output 1.61

# input Lookup Clc1cccc(-c2nn3c(Cn4cnc5ccccc54)nnc3s2)c1
# output 5.9

# input Lookup CC(C)=CCC(C)(C)C1OCCN1C(=O)c1ccccc1 (configuration not stated)
# output 2.3

# input Lookup O=c1nc(N2CCCC2)nc(Nc2ccccc2)[nH]1
# output -4.92

# input Lookup O=C1CC(C(=O)Nc2ccc(Br)cc2)C2(CCCC2)O1 (configuration not stated)
# output -1.75

# input Lookup CC(C)OC(=O)c1ccc(NC(=O)C2C3CC4OC(=O)C2C4C3)cc1 (configuration not stated)
# output -4.91

# input Lookup COc1ccccc1N1CCN(CC(O)COc2cccc3ccccc23)CC1 (configuration not stated)
# output -1.5

# input Lookup CCOC(=O)N1CCN(Cc2nc3c(c(=O)[nH]c(=O)n3C)n2Cc2cc(C)ccc2C)CC1
# output 0.32

# input Lookup O=C(c1cc(-c2cccc(O)c2)on1)N1CCN(C(c2ccccc2)c2ccccc2)CC1
# output -3.5
